Molecular target: T1, recombinant purified FRα (ECL assay calibrator) (human, UniProt P15328 25-234)
T1 construct: Calibrator of the ECL sandwich assays; also called FRα calibrator; FRα standard
T1 sequence (P15328 25-234 limits assumed): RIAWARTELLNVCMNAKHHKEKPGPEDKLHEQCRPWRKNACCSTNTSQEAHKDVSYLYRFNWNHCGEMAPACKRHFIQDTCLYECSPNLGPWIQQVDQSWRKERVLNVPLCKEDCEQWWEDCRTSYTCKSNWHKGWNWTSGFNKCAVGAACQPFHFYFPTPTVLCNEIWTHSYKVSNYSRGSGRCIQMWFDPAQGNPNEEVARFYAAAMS
Experiment: ECL sandwich, FRα calibrator; capture 26A9.C4; binder = detection Ab
Please use Y whenever Specific signal at 500 pg/mL is not below 80, and N whenever it is.

| BINDER | LABEL |
| --- | --- |
| Monoclonal antibody 6A2.G7 (antibody, mouse IgG1, V domains shown, Murine IgG1 kappa from hybridoma; also called ATCC PTA-123093) VH: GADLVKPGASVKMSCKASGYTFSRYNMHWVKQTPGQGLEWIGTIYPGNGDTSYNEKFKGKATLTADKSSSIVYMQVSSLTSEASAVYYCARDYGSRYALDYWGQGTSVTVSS VL: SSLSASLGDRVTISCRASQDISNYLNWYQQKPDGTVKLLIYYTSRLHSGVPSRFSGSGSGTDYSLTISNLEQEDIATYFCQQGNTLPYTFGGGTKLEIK | Y |
| Monoclonal antibody 1C6.E12.G8 (antibody, mouse IgG1, V domains shown, Murine IgG1 kappa from hybridoma; also called ATCC PTA-123091) VH: SGARELVKPGASVKLSCKTSGFTFNSSYITWLKQKPGQSLEWIAWIYAGNGGTTYNQKFTGKAQLTVDTSSSTAYMQFSSLTTEDSAIYYCASETYTNYWYFDVWGSGTTVTVSS VL: QSPASLSASVGETVTITCRASGNIHNYLAWYQQKQGKSPQLLVYNAKTLADGVPSRFSGSGSGTQYSLKINSLQPEDFGSYYCQHFWSTPYTFGGGTKLEIK | N |
| Monoclonal antibody 24H8.F3 (antibody, mouse IgG1, V domains shown, Murine IgG1 kappa from hybridoma; also called ATCC PTA-123097) VH: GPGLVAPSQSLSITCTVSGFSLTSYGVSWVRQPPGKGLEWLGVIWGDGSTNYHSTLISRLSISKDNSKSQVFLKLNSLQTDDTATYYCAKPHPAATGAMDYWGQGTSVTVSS VL: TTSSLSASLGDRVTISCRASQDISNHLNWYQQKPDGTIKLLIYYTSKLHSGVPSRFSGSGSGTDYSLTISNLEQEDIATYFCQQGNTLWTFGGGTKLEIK | N |
